- System: TNFα release from human peripheral blood mononuclear cells
- ASSAY DETAILS: Inhibition of LPS-stimulated TNFα release from human peripheral blood mononuclear cells (TNFα screen)
- Assay type: cell-based
- SETTINGS: LPS-stimulated human PBMC, 18 hours incubation, TNFα in supernatant by ELISA
Each record is given condition met if its reported IC50 is strictly below 200 pM. Records at or above 200 pM are given condition not met.

• CSc1cccc(Oc2ncc(F)cc2C(=O)N[C@H]2CC[C@@H](NC(=O)c3cccc4cccnc34)CC2)c1 = condition not met
• CSc1cccc(Oc2ncc(F)cc2C(=O)N[C@H]2CC[C@@H](NC(=O)c3nn(CCO)c4ccccc34)CC2)c1 = condition not met
• CSc1cccc(Oc2ncc(F)cc2C(=O)N[C@H]2CC[C@@H](NC(=O)c3cccc4cc(O)cnc34)CC2)c1 = condition met
• CSc1cccc(Oc2ncc(F)cc2C(=O)N[C@H]2CC[C@@H](NC(=O)c3cccn4ccnc34)CC2)c1 = condition met
• CSc1cccc(Oc2ncc(F)cc2C(=O)N[C@H]2CC[C@@H](NC(=O)c3cc4ccccn4n3)CC2)c1 = condition met
• CSc1cccc(Oc2ncc(F)cc2C(=O)N[C@H]2CC[C@@H](NC(=O)c3cccc4nn[nH]c34)CC2)c1 = condition not met

These entries and their values trace back to patent US7153870B2.
